B1: 1ZHC (parent)
chain: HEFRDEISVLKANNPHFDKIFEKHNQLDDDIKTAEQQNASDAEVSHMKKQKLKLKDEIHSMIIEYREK

- Variants of: B1
- Assay Notes: folding stability dG (cDNA display proteolysis); higher = more stable
- Experimental Setup: PBS, room temperature
Value Type: folding stability dG (kcal/mol)
Record the value in kcal/mol, omitting the unit from your answer.

E2Y | 1

Query string: Can you share its folding stability dG? I mean this variant: E35K
Result string: 0.972

Query string: Returns the measured folding stability dG for the input variant. Input: D41Q
Result string: 0.972

Query string: folding stability dG for Q26D ?
Result string: 0.206
